# Test system: NOMO1
# protocolDetails: cell viability relative to DMSO control; higher = less cytotoxic
# experimentalContext: HPLM + 10% dialyzed FBS; 48 h; 0.569 µM
property: cell viability (%)

[
  {
    "compound": "FC1=CC=C(SC/2=N/N3\\C=N/C(=O)/C(=C3/C=C2)C4=C(Cl)C=CC=C4Cl)C(=C1)F",
    "testResult": 119
  },
  {
    "compound": "COc1ncc(-c2ccc3nccc(-c4ccnnc4)c3c2)cc1N[S+](=O)([O-])c1ccc(F)cc1F",
    "testResult": 60.5
  },
  {
    "compound": "COc1cc2c(cc1OC)CC(=O)N(CCCN(C)C[C@H]1Cc3cc(OC)c(OC)cc31)CC2.Cl",
    "testResult": 122
  },
  {
    "compound": "Cc1cc(C(C)(C)C)c(O)c(C)c1CC1=NCCN1",
    "testResult": 105
  },
  {
    "compound": "Cc1[nH]c2ccccc2c1CCNCc1ccc(/C=C/C(=O)NO)cc1",
    "testResult": 61.8
  },
  {
    "compound": "OC1=CC2=C(C(=C1)O)C(=O)\\C=C(/O2)C3=CC=CC=C3",
    "testResult": 108
  },
  {
    "compound": "CSCC[C@@H](NC(=O)[C@@H](Cc1ccccc1)NC(=O)CNC(=O)CNC(=O)[C@@H](N)Cc1ccc(O)cc1)C(=O)O",
    "testResult": 121
  },
  {
    "compound": "COc1ccc(-c2nc(N3CCOCC3)c3sc(CN(C)c4ncc(C(=O)NO)cn4)cc3n2)cn1",
    "testResult": 7.83
  },
  {
    "compound": "Cc1cccc(Nc2nc(-c3ccncc3)cs2)c1",
    "testResult": 111
  },
  {
    "compound": "CC(C)C[C@H](NC(=O)[C@H](CCc1ccccc1)NC(=O)CN1CCOCC1)C(=O)N[C@@H](Cc1ccccc1)C(=O)N[C@@H](CC(C)C)C(=O)[C@@]1(C)CO1",
    "testResult": 5.74
  },
  {
    "compound": "CC(C)=CC[C@@H](O)C/1=C/C(=O)C2=C(O)C=CC(=C2C1=O)O",
    "testResult": 123
  },
  {
    "compound": "C[S+](=O)([O-])N1CCc2c(-c3cnc(N)nc3)nc(N3CCOCC3)nc21",
    "testResult": 86.6
  },
  {
    "compound": "OC1CCC(Nc2ncc3nc(Nc4c(F)cc(F)cc4F)n([C@@H]4CCOC4)c3n2)CC1 (stereo partly drawn)",
    "testResult": 143
  }
]
